Below: a set of entries, each annotated with reported pKi.
- protocol_notes: Affinity at sigma-1 site by inhibition of [3H](+)-pentazocine (PENT) binding in guinea pig brain
Please note pKi is a logarithmic value: minus log10 of concentration in mol/L. Answer with that number alone.

>>> df
                               query_smiles  endpoint_name  reported_measurement
0  COc1ccc(C2(C(=O)OCCN3CCC(c4ccccc4)CC3)CCCC2)cc1            pKi                  9.00
1  O=C(OCCN1CCC(c2ccccc2)CC1)C1(c2ccc(Cl)cc2)CCCC1            pKi                  8.89
2  O=C(OCCN1CCC(c2ccccc2)CC1)C1(c2ccccc2)CCCC1            pKi                  8.40
3  O=C(OCCCN1CCC(c2ccccc2)CC1)C1(c2ccc([N+](=O)[O-])cc2)CCCC1            pKi                  9.57

Read the next record carefully.
Prompt: Please report pKi for the following molecule: N#Cc1ccc(C2(C(=O)OCCN3CCC(c4ccccc4)CC3)CCCC2)cc1
Response: 8.89
